# Target Desc: PTP1B (Homo sapiens, UniProt P18031)
# Sequence (P18031 whole entry): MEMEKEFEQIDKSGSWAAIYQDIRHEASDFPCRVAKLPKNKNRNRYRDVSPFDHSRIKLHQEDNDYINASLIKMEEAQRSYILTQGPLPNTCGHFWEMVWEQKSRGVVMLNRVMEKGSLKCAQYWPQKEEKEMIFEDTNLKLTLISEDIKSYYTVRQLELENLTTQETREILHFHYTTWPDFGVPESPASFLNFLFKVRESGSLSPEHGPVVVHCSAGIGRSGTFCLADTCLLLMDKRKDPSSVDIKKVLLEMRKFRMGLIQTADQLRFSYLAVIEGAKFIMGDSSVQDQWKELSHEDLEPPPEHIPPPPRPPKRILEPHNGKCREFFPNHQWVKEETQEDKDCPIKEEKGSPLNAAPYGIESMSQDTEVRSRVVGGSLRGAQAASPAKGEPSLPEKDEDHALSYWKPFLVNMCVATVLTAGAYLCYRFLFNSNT
# Assay Remarks: PTP1B inhibition assay (pNPP hydrolysis / Malachite Green)
# Type: biochemical
# Stated Conditions: mean ± SD of three replicates
# Procedure: PTP1B activity was measured as the rate of hydrolysis of p-nitrophenyl phosphate (pNPP) in a 96-well microtiter plate format. […] Inhibitors were added in DMSO at 100 times the final concentration. PTP1B activity was measured as the rate of inorganic phosphate released upon hydrolysis of the IR phosphopeptide, TRDIpYETDpYpYRK, using a Malachite Green method. The enzyme activity was estimated by measuring the absorbance at 405 nm with appropriate corrections. […]
Recorded Endpoint: IC50 (µM)

CCCCCCC/C=C/[C@@H]1O[C@H]2C(=O)C=C3C[C@H](O)C[C@H]3[C@@H]2C=C1C: 15.9
CCCCCCC/C=C/[C@@H]1O[C@H]2C(=O)C=C3C=CC[C@H]3[C@@H]2C=C1C: 0.37
CCCCCCC/C=C/[C@@H]1O[C@@]2(O)C(=O)C=C3C=CC[C@H]3[C@@H]2C=C1C: 12.5
CCCCCCC/C=C/[C@@H]1O[C@H]2C(=O)C=C3C[C@@H](O)C[C@H]3[C@@H]2C=C1C: 33.7
